src = PubChem BioAssay (NCI)

Test system: RPMI-8226 leukemia
Assay Comment: NCI-60 one-dose screen, 48 h (100 = growth as untreated, 0 = no growth, -100 = all killed)
Study Conditions: 10 µM unless noted
The panel holds about 83,000 compounds, 20% with a hit somewhere; the sample as a whole holds those more often.
Listed next: entries and their corresponding growth.
# number only, unit % dropped from output

>>> observed_result("S=C1CC(=S)NC(=S)N1")
122
>>> observed_result("Cc1c(C(N)=O)sc2c1c(=O)n(Cc1ccccc1)c1nnc(Nc3ccccc3)n21")
148
>>> observed_result("Cc1ccc(Cc2c(C=O)nc(N)[nH]c2=O)c2ccccc12")
99.6
>>> observed_result("CCCCNC(=O)Oc1ccc(/C(=C(\\C)c2ccccc2)c2ccc(OCCN(CC)CC)cc2)cc1")
49.8

Exercise: Report growth for COc1cc(-c2nn(C(=O)NS(=O)(=O)c3ccccc3)cc2-c2ccncc2)ccc1Cl please.
Solution: 74.2

====

Each entry below carries its reported growth.
Tested on: UACC-62 melanoma
Assay Comment: NCI-60 one-dose screen, 48 h (100 = growth as untreated, 0 = no growth, -100 = all killed)
Study Conditions: 10 µM unless noted
Experimental: Growth inhibition of the UACC-62 human tumor cell line is measured as a screen for anti-cancer activity. Cells are grown in 96 well plates and exposed to the test compound for 48 hours. Compounds are tested at a single concentration, which is 10^-5 M for most compounds. The reported endpoint is percent growth (GI% or GIPRCNT), where numbers from 0 - 100% represent growth inhibition, and numbers from -100% - 0 represent cell death. For example, a value of 40 represents 60% growth inhibition. […]
The panel holds about 83,000 compounds, 20% with a hit somewhere; the sample as a whole holds those more often.
Reply numerically in %, unit not repeated.

Exercise: Please give the measured growth for this molecule: Cc1csc(NC(c2ccc(Br)cc2)c2c(C)nc3ccccn23)n1 (stereo unspecified)
Solution: 81.9

====

System: HCT-15 colon
Assay Comment: NCI-60 one-dose screen, 48 h (100 = growth as untreated, 0 = no growth, -100 = all killed)
Study Conditions: 10 µM unless noted
Compounds without any hit were thinned out: in the full panel of roughly 83,000, 20% have a hit.
Quantity Measured: growth (%)
Answer with a number only, understood to be in %.

Exercise: Requested field: growth. Item: CCN(CC)c1ccc2[nH]c3c(C(N)=O)cc(=O)c(=O)c=3oc2c1
Solution: 1.73

Exercise: Follow-up item: COC(=O)[C@]12CC[C@@H](C)[C@H](C)[C@@H]1C1=CC[C@@H]3[C@@]4(C)C(C=O)=C[C@@](C)(COC(=O)c5ccco5)[C@@H]4[C@H](O)C[C@@]3(C)[C@]1(C)CC2
Solution: -78.3

Exercise: Same again, this time with COc1ccc(-c2ccc(-c3ccc(C(=N)N)cn3)s2)cc1OC
Solution: 99.8

====

Test system: KM12 colon
Assay Comment: NCI-60 one-dose screen, 48 h (100 = growth as untreated, 0 = no growth, -100 = all killed)
Study Conditions: 10 µM unless noted
The panel holds about 83,000 compounds, 20% with a hit somewhere; the sample as a whole holds those more often.
Below is a list of entries, each paired with its recorded growth value.
Reply with just the number (in %).

Illustrative cases are given below, each with its answer.
>>> observed_result("C=CCSc1n[nH]c(-c2cccs2)n1")
111
>>> observed_result("CCOC(=O)c1ccc(NC(=O)N2CC(C)OC(C)C2)cc1 (stereo unspecified)")
108
>>> observed_result("CCCCN(CCCC)C(=O)CC")
106
>>> observed_result("Cc1csc(NC(c2ccc(Br)cc2)c2c(C)nc3ccccn23)n1 (stereo unspecified)")
97.7

Query molecule follows.
Exercise: Looking for the measured growth of COc1ccc(-c2ccc(-c3ccc(C(=N)N)cn3)s2)cc1OC , can you help?
Solution: 95.9

====

Test system: UACC-257 melanoma
Assay Comment: NCI-60 one-dose screen, 48 h (100 = growth as untreated, 0 = no growth, -100 = all killed)
Study Conditions: 10 µM unless noted
Procedure: Cells are grown in 96 well plates and exposed to the test compound for 48 hours. Compounds are tested at a single concentration, which is 10^-5 M for most compounds. The reported endpoint is percent growth (GI% or GIPRCNT), where numbers from 0 - 100% represent growth inhibition, and numbers from -100% - 0 represent cell death. For example, a value of 40 represents 60% growth inhibition. A value of 0 means no net growth occurred over the course of the experiment. […]
About 83,000 compounds went through this panel and 20% of them were active in at least one assay; those are over-represented in the sample as a whole.
Threshold rule: growth greater than or equal to 50% is MET; below that, NOT MET.

Some entries whose results are on file:
>>> cat("COc1ccc(S(=O)(=O)n2ccc(-c3ccc4c(c3)CCC(C)(C)O4)n2)cc1OC")
"MET"
>>> cat("O=C1CCCCC1(c1ccccc1)c1ccccc1")
"MET"

Exercise: growth >= 50% for COc1ccc(CNCCCN2C(=O)c3ccc4c5c(ccc(c35)C2=O)C(=O)N(CCCNCCCCNCCCN)C4=O)c(OC)c1OC ?
Solution: NOT MET

Exercise: # repeat for N=c1ccc2nc3ccc(N)cc3sc-2c1
Solution: NOT MET

Exercise: Now the molecule COc1ccc2c(c1)cn1c3ccc(OC)cc3[nH]c(=O)c21
Solution: MET

Exercise: Entry to check: CCCCN(CCCC)C(=N)c1ccnc2ccccc12
Solution: MET

Exercise: Could you do the same for O=S(=O)(NCCNc1nccc(-c2c(-c3ccc(O)cc3)nc3sccn23)n1)c1cccc2ccccc12 , please?
Solution: MET

Exercise: Here is the next molecule: O=C1/C(=C/c2ccccc2)Oc2ccc(O)c(I)c21
Solution: MET

====

Tested on: UACC-62 melanoma
Assay Comment: NCI-60 one-dose screen, 48 h (100 = growth as untreated, 0 = no growth, -100 = all killed)
Study Conditions: 10 µM unless noted
Compounds without any hit were thinned out: in the full panel of roughly 83,000, 20% have a hit.
The threshold is 90%. Values of growth beneath it are tagged yes (1); values meeting or exceeding it are tagged no (0).

>>> cat("O=C(Nc1ccc(NCCN2CCOCC2)nc1)c1ccc([N+](=O)[O-])cc1")
"no (0)"
>>> cat("COc1ccc(-c2nc(/C=C3/C(=O)Nc4ccc(F)cc43)c3ccccn23)cc1")
"no (0)"
>>> cat("CN(C)CCOC(=O)Nc1ccccc1Cl")
"no (0)"
>>> cat("COc1cc(/C=N\\NC(=O)CN2CCN(c3cc4c(cc3F)c(=O)c(C(=O)N/N=C/c3cc(OC)c(OC)c(OC)c3)cn4C3CC3)CC2)cc(OC)c1OC")
"yes (1)"

Field: next molecule
Exercise: Identify whether the molecule O=C1Nc2ccc3c(c2/C1=C\c1cc2c(cc1Br)OCO2)OCO3 records growth below 90%.
Solution: yes (1)

====

Tested on: NCI-H522 lung
Assay Comment: NCI-60 one-dose screen, 48 h (100 = growth as untreated, 0 = no growth, -100 = all killed)
Study Conditions: 10 µM unless noted
This is part of a sample that, as a whole, favours compounds with a hit. Of some 83,000 tested, about 20% had one in any assay.
// boundary case: growth equal to 60% maps to 0 (no); strictly smaller maps to 1 (yes)

A selection of reference data follows.
>>> cat("CCN(CC)CCOc1ccc(Cl)c(C)c1")
"0 (no)"
>>> cat("C/C(=C\\c1ccc(OCC(=O)O)c(Cl)c1Cl)[N+](=O)[O-]")
"0 (no)"
>>> cat("COc1ccc(-c2ccc(-c3ccc(C(=N)N)cn3)s2)cc1OC")
"0 (no)"
>>> cat("N#Cc1c(Nc2ccccc2)nc2n(c1=O)-c1ccccc1Sc1ccccc1-2")
"0 (no)"
>>> cat("CCN(CC)c1ccc2[nH]c3c(C(N)=O)cc(=O)c(=O)c=3oc2c1")
"1 (yes)"
>>> cat("COc1cc(Nc2ncccc2C(=O)NCc2cn(Cc3cccc(Oc4ccccc4)c3)nn2)cc(OC)c1")
"1 (yes)"

// next entry
Exercise: Lab log: compare recorded growth with 60%; is it strictly lower for COc1cccc(/C=C2\Oc3cc(OCCCN4CCCC4)ccc3C2=O)c1OC ?
Solution: 0 (no)

====

System: HCT-116 colon
Assay Comment: NCI-60 one-dose screen, 48 h
Study Conditions: 10 µM unless noted
The panel holds about 83,000 compounds, 20% with a hit somewhere; the sample as a whole holds those more often. Activity calls are given as the source filed them. How the source made its calls: active means growth percent below 10; inactive means the rest.
Answer with one of the outcomes given here: 1 (yes) (active), 0 (no) (inactive)

>>> cat("OCc1ncc(-c2ccccc2)s1")
"0 (no)"

Exercise: For O=C(/C=C\c1cccc([N+](=O)[O-])c1)/C=C/c1cccc([N+](=O)[O-])c1 , what call appears in the results of this test?
Solution: 1 (yes)

Exercise: Same question, C=C1CCC2C(C)(CO)C(O)CCC2(C)C1CC(NCc1ccccc1)C1=CCOC1=O (stereo not given) this time
Solution: 0 (no)

Exercise: Follow-up item: CC(C)(C)n1cc(-c2ccnc(NCCCNS(=O)(=O)c3ccccc3)c2)c(-c2cccc(O)c2)n1
Solution: 0 (no)

Exercise: Also N#Cc1ccc(N2Cc3ccccc3OC3=C2C(=O)c2c(O)ccc(O)c2C3=O)cc1 , if possible.
Solution: 1 (yes)
